target: Arginase-2, mitochondrial (Homo sapiens); assay: in vitro enzyme assay to detect the production of urea directly proportional to the activity of Arginase II; format: functional; design: scale not given: in the data most compounds retested in dose-response had high values; conditions: 33.3 µM
Can you tell me Percent Effect for the items I'm about to list?
Numbers only, in %.

Cc1cnn(CC2CCCN2C(=O)c2cc3ccccc3[nH]c2=O)c1 (stereo not drawn) = -1.9
Cn1cccc1C(=O)N1CCC2(CC1)CN(c1cncnc1)C(=O)CO2 = -1.17

// Percent Effect lookup, compound = Cn1cc(CN2CCCN(C(=O)c3cc(Cl)cn3C)CC2)cn1 , result: -3.45

###

target: Protein translocase subunit SecA (Escherichia coli (strain K12)) (UniProt P10408); test: Assay to Identify E. coli SecA ATPase Inhibitors; format: functional; design: scale not given: direction of the effect not stated beside the values; details: 30 µM
Sequence (P10408 whole entry): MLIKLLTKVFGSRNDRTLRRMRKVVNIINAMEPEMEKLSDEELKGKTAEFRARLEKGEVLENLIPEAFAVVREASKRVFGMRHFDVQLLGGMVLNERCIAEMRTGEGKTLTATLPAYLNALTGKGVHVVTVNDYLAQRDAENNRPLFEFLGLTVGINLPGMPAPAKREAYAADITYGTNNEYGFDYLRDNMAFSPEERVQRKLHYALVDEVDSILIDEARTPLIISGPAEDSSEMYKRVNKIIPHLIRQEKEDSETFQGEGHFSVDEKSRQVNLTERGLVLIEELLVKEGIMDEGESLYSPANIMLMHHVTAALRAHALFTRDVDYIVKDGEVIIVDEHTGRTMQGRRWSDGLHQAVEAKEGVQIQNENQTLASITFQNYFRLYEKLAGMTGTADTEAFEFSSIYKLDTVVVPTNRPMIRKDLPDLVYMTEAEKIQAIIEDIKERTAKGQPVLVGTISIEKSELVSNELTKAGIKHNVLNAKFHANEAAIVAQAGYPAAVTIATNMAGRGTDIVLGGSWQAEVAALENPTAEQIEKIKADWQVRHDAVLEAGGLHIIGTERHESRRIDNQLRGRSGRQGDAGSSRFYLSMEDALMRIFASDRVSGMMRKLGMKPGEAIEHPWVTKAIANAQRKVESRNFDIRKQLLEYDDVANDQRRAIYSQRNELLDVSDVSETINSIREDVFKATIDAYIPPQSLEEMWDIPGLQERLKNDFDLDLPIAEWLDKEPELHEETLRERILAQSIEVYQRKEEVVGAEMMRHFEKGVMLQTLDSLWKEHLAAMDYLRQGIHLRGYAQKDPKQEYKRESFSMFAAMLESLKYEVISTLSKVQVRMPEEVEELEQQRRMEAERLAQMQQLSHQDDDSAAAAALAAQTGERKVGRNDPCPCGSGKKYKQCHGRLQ
Entries with a potency or affinity are not part of this list.
Please provide measured Percent Effect for the entries that follow.
One number for each entry, in %.

Example cases with answers are listed next.
CCCN1CCC(NC(=O)c2ccc(F)cc2I)CC1 = -2.2
O=C1CCSCC(C(=O)N2CCCC2)N1 (stereo not given) = -1.89
O=C(c1cccc(CNS(=O)(=O)c2ccccc2F)c1)N1CCCC1 = -3.56
O=C(C1CCC1)N1CCN(Cc2ccsc2)[C@H]2CS(=O)(=O)C[C@H]21 = -4.53
CC(C)OCCN(Cc1cccc(O)c1)C1CCC(O)CC1 (stereo not given) = -4.61

// for each molecule below, give its Percent Effect
1. Cc1nnc2n1CCN(C(=O)c1cc(C)n(-c3ccccn3)c1C)C2
2. CN(C)C(=O)CN1CCC2(CCCN(Cc3cccn3C)C2)C1=O (stereo not given)
3. CN(Cc1ccccc1)CC1(O)CCCN(CC(C)(C)C)C1=O (stereo not given)
4. Cn1ccnc1CN(CCCO)C1CCCc2ccccc21 (stereo not given)

(A)
1: -5.88; 2: -6.92; 3: -2.06; 4: -5.87

Provide reported Percent Effect for each item, in the same order as listed.
1. O=C(CC1CC1)NCc1cn2c(n1)CN(CC1CC1)CC2
2. CC(=O)N1CCCN(C(=O)c2cnc3n[nH]c(C)c3c2)CC1
3. COCC(c1cccc(C(F)(F)F)c1)N(C)C(=O)c1cc(C)n[nH]1 (stereo not given)
4. NC[C@H]1CC[C@H](C(NC(=O)c2cccc(F)c2)c2ccccn2)CC1 (stereo not given in full)
5. CN1CCOC(CN(C(=O)Cc2ccccc2F)c2nccs2)C1 (stereo not given)
6. COc1ccc(S(=O)(=O)N2CCCC3(CCCN3S(C)(=O)=O)C2)cc1 (stereo not given)

(A)
[-3.1, -1.9, 0.248, 0.535, -1.47, -2.95]

###

For each of the compounds below, state its Percent Effect.
target: Sialic acid-binding Ig-like lectin 9 (Homo sapiens) (UniProt Q9Y336); experiment: Hs-Siglec9 ALPHAscreen SOP 20170721; set-up: scale not given: direction of the effect not stated beside the values; settings: 10 µM
Sequence (Q9Y336 whole entry): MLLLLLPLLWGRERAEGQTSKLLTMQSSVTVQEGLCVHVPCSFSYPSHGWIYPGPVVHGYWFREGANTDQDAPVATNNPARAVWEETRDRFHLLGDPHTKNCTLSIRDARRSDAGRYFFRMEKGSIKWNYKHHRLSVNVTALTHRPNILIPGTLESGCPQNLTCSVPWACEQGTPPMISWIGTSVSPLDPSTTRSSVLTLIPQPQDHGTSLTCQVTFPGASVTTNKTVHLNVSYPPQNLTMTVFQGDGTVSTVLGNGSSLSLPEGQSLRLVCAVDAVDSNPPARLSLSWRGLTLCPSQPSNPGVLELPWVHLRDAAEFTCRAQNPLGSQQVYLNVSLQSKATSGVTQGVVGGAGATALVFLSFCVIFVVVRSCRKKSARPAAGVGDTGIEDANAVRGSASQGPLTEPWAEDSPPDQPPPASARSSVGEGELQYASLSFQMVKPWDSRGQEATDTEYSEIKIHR
Numbers only, in %.

COc1cc(C)nc(N2CCN(C(=O)c3ccc(Cl)o3)CC2)n1 = -1.86
CCCc1nc(N2CCN(CC)CC2)c2c(n1)c(C)nn2CC = 26.2
Cc1nn(C)c(C)c1-c1cncc(C2CCN(S(C)(=O)=O)CC2)n1 = 4.44

Your task in this section: give Percent Effect for each listed record.
1. Cc1nnc(NCc2cccnc2N(C)C)c(C#N)c1C
2. CCN(Cc1ccc(OC)c(F)c1)C(=O)c1ccc(C)[nH]c1=O
3. O=C(Cc1ccsc1)NCC1OCCc2cn(CC3CC3)nc21 (stereo not drawn)

(A)
1: 9.49; 2: 9.42; 3: -0.104

Go through the list and state Percent Effect for each entry.
1. CN1CCCN(C[C@@H]2CN(C(=O)CCC3CCCC3)C[C@@H]2CO)CC1
2. CC(CNC(=O)c1ccc(F)cc1Cl)N1CCCC1 (stereo not drawn)

(A)
18.7
-4.19

###

target: AMP-activated protein kinase, AMPK (Homo sapiens) (UniProt P54646+O43741+P54619+Q9UGJ0+Q9Y478+Q13131+Q9UGI9); assay: AMP-dependent Kinase enzyme assay. An in vitro enzyme assay that detects ADP turnover that is directly proportional to AMPK activity. This uses naive AMPK that is activated during the assay with MK-8722; type: functional; set-up: scale not given: direction of the effect not stated beside the values; conditions: 30 µM
parameter_measured: Percent Effect (%)
Numbers only, in %.

Some solved entries appear below for comparison.
CCn1c(C(=O)N2CCN(C(=O)NC(C)C)CC2)cc2ccccc21 = 5.86
COc1c(C2CCCN2CC(=O)Nc2nc(C)cs2)c(C)nn1C (centres undefined) = -8.37
CNc1cc2c(nn1)CCN(C(=O)c1cc(F)cc(F)c1)C2 = 2.19
Cc1ccc(-c2nc(CN3CCC(C(=O)N(C)C)CC3)cs2)o1 = -1.3
COCCN(Cc1ccoc1)C(=O)c1c(F)cccc1Cl = 10.7
COCc1cnc2n1CCN(C(=O)C1=CCCCC1)C2C (centres undefined) = -3.72

Your task in this section: give Percent Effect for each listed record.
1. CCc1cnc(CN(C(C)=O)C2CCN(CCS(C)(=O)=O)C2)o1 (centres undefined)
2. CCc1ncc(C(=O)NCCNC(=O)Cc2ccc(F)cc2)s1
3. CN(C)CC(=O)N1CCCC2(CCC(=O)N(CCc3c[nH]cn3)C2)C1 (centres undefined)
4. Cc1csc(NC(=O)CN(C)CC2CCCN2c2cccnn2)n1 (centres undefined)
5. Cc1noc(C2CCC3(CCN(C(=O)C4=CCCCC4)CC3)O2)n1 (centres undefined)

(A)
-4.16
-16.6
-0.193
-8.12
-5.86

# batch: return Percent Effect for each of the 7 molecules below
1. O=C(CC1=CCCCC1)NCCc1csc(N2CCCC2)n1
2. CSCC[C@H](N)C(=O)NCc1cc2n(n1)CCCN(C(=O)C1CCC1)C2
3. Cc1nc(C)c(C(=O)NCCNC(=O)Cc2cccc(F)c2)s1
4. CCn1c(C(=O)N2CCN(CC(C)O)CC2)cc2ccccc21 (centres undefined)
5. CCn1cc2c(n1)CN(Cc1ccncc1)CC2COCC1CC1 (centres undefined)
6. CCOc1ccc(C#N)cc1NCC(=O)Nc1cc(F)ccc1F
7. Cc1ccc(CC(=O)N2CCOC(c3nc(C(C)(C)C)n[nH]3)C2)cn1 (centres undefined)

(A)
1: -0.418; 2: -3.76; 3: -2.81; 4: -6.74; 5: 12.3; 6: -7.04; 7: -9.66

Fill in Percent Effect for each of the 3 molecules listed.
1. COc1ccc(CCN2CCCC(CN(C)Cc3ccc(C)o3)C2)cc1 (centres undefined)
2. CC(C)NC(=O)N1CCC(n2ccc(C(F)(F)F)n2)CC1
3. CCN(CC)Cc1cn2c(n1)CN(C(=O)c1cnccn1)CC2

(A)
1. -4.07
2. -3.52
3. 3.85

###

target: Tyrosyl-tRNA synthetase, putative (Trypanosoma cruzi (strain CL Brener)) (UniProt Q4DSP6); experiment: Trypanosoma cruzi tyrosyl tRNA synthetase (TcYRS) SOP; type: functional; set-up: scale not given: direction of the effect not stated beside the values; conditions: 30 µM
Sequence (Q4DSP6 as listed by the source): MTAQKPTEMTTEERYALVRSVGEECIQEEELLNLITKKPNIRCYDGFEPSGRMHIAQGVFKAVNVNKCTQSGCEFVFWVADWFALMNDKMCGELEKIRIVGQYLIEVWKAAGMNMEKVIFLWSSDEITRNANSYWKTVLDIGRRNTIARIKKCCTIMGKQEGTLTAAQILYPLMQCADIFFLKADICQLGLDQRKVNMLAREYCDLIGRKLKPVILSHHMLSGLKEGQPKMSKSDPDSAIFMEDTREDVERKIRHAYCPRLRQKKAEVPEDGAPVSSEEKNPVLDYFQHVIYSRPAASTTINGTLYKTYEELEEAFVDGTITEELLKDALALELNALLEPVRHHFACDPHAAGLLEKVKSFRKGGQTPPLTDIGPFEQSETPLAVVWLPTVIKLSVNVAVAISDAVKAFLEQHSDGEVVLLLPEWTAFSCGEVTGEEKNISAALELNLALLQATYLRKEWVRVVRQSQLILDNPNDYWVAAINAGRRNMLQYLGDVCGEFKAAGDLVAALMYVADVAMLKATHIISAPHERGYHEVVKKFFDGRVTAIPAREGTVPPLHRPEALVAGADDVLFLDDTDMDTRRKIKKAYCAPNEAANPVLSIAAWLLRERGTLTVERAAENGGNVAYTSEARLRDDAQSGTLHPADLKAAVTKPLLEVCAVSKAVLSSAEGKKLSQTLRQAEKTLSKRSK
parameter_measured: Percent Effect (%)
Numbers only, in %.

CCN1CCN(S(=O)(=O)c2ncn(C)c2Cl)CC1 = 10.3
CN1CCc2nc(C3CCN(C(=O)CCC4CCCC4)CC3)ncc2C1 = 34.6
O=C(NCC1CCCO1)c1c(-n2cnnn2)sc2c1CCC2 (stereo unspecified) = 7.79
Cn1ncc2c1NC(=O)CC2c1ccc(Cl)cc1Cl (stereo unspecified) = 2.6
CC(Cn1cccn1)NC(=O)NCCc1cnn(C)c1 (stereo unspecified) = 8.86

Now consider a different molecule.
// CS(=O)(=O)NCCCNC(=O)c1cccnc1O : Percent Effect value = 8.54

###

molecular target: Proteasome subunit beta (Trypanosoma cruzi) (UniProt O96673); experiment: Trypanosoma cruzi proteasome chymotrypsin-like activity (TcProtChymo) assay.; type: functional; design: scale not given: in the data most compounds retested in dose-response had high values; conditions: 9.37 µM
Sequence (O96673 as listed by the source): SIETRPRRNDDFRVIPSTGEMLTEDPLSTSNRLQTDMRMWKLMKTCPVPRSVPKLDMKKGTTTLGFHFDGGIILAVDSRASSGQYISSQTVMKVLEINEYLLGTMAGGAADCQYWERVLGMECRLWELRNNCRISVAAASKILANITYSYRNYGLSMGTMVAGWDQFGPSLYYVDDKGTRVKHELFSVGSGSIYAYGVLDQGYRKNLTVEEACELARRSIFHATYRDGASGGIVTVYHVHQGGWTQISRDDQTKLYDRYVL
parameter_measured: Percent Effect (%)
Give bare numbers, in %.

Some molecules with recorded Percent Effect:
Cc1cc(C)nc(CCNC(=O)C(c2ccc(F)cc2)N(C)C)n1 (configuration not stated) = 3
Cc1nc(C)n(C2CCCN(C(=O)c3ccc(N(C)C)nn3)C2)n1 (configuration not stated) = 6.06
CC(=O)Nc1cccc(OCCNC(=O)N(C)Cc2ccco2)c1 = 6.62
CC(C)n1ccnc1C1CCN(Cc2ccc(Cl)s2)CC1 = 6.99
CC(=O)N1CCCC1c1cccc(Cc2ccccc2F)n1 (configuration not stated) = -1.25

Record Percent Effect per entry; entries follow.
1. Cc1cc(CN2CCN(C(c3ccccc3)c3ccccc3)CC2)no1
2. O=C1NC2(CCN(C(=O)Cc3ccsc3)CC2)CC1c1ccncc1 (configuration not stated)

(A)
2.87
11.1
